- ASSAYED TARGET: α1A adrenoceptors (Oryctolagus cuniculus, UniProt O02824)
- Construct: from tissue; host or cells: rabbit liver membranes
- Sequence (O02824 whole entry): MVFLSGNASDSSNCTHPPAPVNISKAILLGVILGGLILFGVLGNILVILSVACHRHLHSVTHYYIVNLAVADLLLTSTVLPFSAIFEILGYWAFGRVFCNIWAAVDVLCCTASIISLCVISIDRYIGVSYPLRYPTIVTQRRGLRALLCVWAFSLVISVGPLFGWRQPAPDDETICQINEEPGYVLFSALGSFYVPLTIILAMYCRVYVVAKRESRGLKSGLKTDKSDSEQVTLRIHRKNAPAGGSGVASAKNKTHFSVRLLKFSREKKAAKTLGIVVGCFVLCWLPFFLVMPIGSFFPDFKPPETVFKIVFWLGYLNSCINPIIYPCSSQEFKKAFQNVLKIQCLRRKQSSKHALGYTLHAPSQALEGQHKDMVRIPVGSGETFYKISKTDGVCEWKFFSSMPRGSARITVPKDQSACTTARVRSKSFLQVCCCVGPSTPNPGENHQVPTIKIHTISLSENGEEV
- ASSAY METHOD TEXT: Binding of [3H]-prazosin to α1A adrenoceptors (rabbit liver membranes)
- RUN CONDITIONS: Table 5; Cheng-Prusoff; read-out: α1A Ki
READOUT KIND: Ki (nM)
Your answer should be a plain number; it is taken to be in nM.

Completed entries (count: 3):
| MOLECULE | ASSAYED TARGET | UNIT INFO | OBSERVED RESULT |
| --- | --- | --- | --- |
| CCCCCCN1CCN(c2ccccc2OC)CC1 [LDT 66] | α1A adrenoceptors (Oryctolagus cuniculus, UniProt O02824) | nM | 43 |
| CCN1CCN(c2ccccc2OC)CC1 [LDT 62] | α1A adrenoceptors (Oryctolagus cuniculus, UniProt O02824) | nM | 261 |
| CCN1CCN(c2ccccc2)CC1 [LDT 39] | α1A adrenoceptors (Oryctolagus cuniculus, UniProt O02824) | nM | 374 |

Consider the additional molecule presented here.
Exercise: Look up α1A adrenoceptors (Oryctolagus cuniculus, UniProt O02824) data: Ki of CCCCCCCN1CCN(c2ccccc2OC)CC1 [LDT 67] , then report it.
Solution: 81

----------
- ASSAYED TARGET: 5-HT1A receptors (Rattus norvegicus)
- Construct: Intrinsic Activity at Native 5-HT1A Receptors; from tissue; host or cells: rat hippocampus membranes
- ASSAY METHOD TEXT: Binding of [3H]p-MPPF with GTP to 5-HT1A receptors; intrinsic activity (Ki low/Ki high)
- RUN CONDITIONS: Table 9; estimate of intrinsic activity
READOUT KIND: Ki low/Ki high
Please respond with just the number, no unit label.

Completed entries (count: 2):
| COMPOUND | Ki low/Ki high |
| --- | --- |
| CCCCCCN1CCN(c2ccccc2OC)CC1 [LDT 66] | 1.80 |
| CCCCCCCCN1CCN(c2ccccc2OC)CC1 [LDT 68] | 0.34 |

Exercise: Complete the entry with Ki low/Ki high for CCCCCN1CCN(c2ccccc2OC)CC1 [LDT 65]
Solution: 1.18

Exercise: Complete the entry with Ki low/Ki high for CCCCCCCN1CCN(c2ccccc2OC)CC1 [LDT 67]
Solution: 0.37

----------
- ASSAYED TARGET: muscarinic receptors
- RUN CONDITIONS: Table 14; Cheng-Prusoff
READOUT KIND: Ki (µM)
Your answer should be a plain number; it is taken to be in µM.

Completed entries (count: 6):
| ITEM SMILES | ASSAYED TARGET | READOUT KIND | UNIT INFO | OBSERVED RESULT |
| --- | --- | --- | --- | --- |
| COc1cccc(CCN2CCN(c3ccccc3OC)CC2)c1 | muscarinic receptors | Ki | µM | 56.7 |
| CCCCCCN1CCN(c2ccccc2OC)CC1 | muscarinic receptors | Ki | µM | 54.2 |
| CCCCCCCN1CCN(c2ccccc2OC)CC1 | muscarinic receptors | Ki | µM | 21 |
| COc1ccc(CCN2CCN(c3ccccc3OC)CC2)cc1OC | muscarinic receptors | Ki | µM | 108 |
| CCCCCCCCN1CCN(c2ccccc2OC)CC1 | muscarinic receptors | Ki | µM | 10.8 |
| CCCCCN1CCN(c2ccccc2OC)CC1 | muscarinic receptors | Ki | µM | 172 |

Exercise: Complete the entry with Ki for CCOc1ccccc1N1CCN(CCc2ccc3c(c2)OCO3)CC1
Solution: 33.9

----------
- ASSAYED TARGET: α1B adrenoceptors (Rattus norvegicus)
- Construct: from tissue; host or cells: rat liver membranes
- Sequence (P15823 whole entry): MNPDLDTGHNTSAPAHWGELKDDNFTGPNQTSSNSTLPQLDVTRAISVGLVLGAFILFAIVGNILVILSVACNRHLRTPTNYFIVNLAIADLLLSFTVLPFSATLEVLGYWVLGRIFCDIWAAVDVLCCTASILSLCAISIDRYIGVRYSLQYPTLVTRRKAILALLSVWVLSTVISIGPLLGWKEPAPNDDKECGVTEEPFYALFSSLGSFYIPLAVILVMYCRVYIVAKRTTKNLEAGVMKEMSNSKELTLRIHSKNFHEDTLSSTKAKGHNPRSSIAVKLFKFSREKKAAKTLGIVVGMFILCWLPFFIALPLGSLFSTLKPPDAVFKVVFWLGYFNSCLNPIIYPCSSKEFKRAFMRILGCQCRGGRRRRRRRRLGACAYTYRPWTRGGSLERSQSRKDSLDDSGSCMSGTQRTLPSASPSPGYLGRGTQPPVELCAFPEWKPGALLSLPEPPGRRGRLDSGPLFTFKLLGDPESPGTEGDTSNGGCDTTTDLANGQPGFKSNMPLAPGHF
- ASSAY METHOD TEXT: Binding of [3H]-prazosin to α1B adrenoceptors (rat liver membranes)
READOUT KIND: IC50 (nM)
Your answer should be a plain number; it is taken to be in nM.

| MOLECULE | IC50, nM |
| --- | --- |
| COc1ccc(CCN2CCN(c3ccccc3OC)CC2)cc1 [LDT 4] | 30.2 |

Exercise: Complete the entry with IC50 for CCCCCN1CCN(c2ccccc2OC)CC1 [LDT 65]
Solution: 331

Exercise: Complete the entry with IC50 for COc1ccccc1N1CCN(CCc2ccccc2)CC1 [LDT 2]
Solution: 63.1

Exercise: Complete the entry with IC50 for CCOc1ccccc1N1CCN(CCc2ccc3c(c2)OCO3)CC1 [LDT 8]
Solution: 11.7

Exercise: Complete the entry with IC50 for COc1cccc(CCN2CCN(c3ccccc3OC)CC2)c1 [LDT 3]
Solution: 95.5

----------
- ASSAYED TARGET: 5-HT1A receptors (Rattus norvegicus, UniProt P19327)
- Construct: Intrinsic Activity at Native 5-HT1A Receptors; from tissue; host or cells: rat hippocampus membranes
- Sequence (P19327 whole entry): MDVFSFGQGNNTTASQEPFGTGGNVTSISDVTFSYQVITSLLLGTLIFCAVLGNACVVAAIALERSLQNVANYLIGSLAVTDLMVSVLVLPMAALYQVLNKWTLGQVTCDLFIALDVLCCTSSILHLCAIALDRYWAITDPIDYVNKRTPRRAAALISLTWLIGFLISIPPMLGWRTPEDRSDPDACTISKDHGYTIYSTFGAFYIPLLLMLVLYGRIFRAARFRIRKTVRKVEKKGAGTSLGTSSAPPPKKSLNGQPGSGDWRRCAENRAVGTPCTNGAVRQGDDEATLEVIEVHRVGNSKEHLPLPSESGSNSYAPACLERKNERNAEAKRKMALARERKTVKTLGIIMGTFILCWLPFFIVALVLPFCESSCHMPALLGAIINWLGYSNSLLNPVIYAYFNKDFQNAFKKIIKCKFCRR
- ASSAY METHOD TEXT: Binding of [3H]-8-OH-DPAT to 5-HT1A receptors (rat hippocampus membranes)
- RUN CONDITIONS: Ki high (nM), Table 13; agonist radioligand [3H] 8-OH-DPAT
- Protocol: Membrane preparations of rat hippocampus according to previously described by HALL et al (1985) and PEROUTKA (1986) were performed. […] After the incubation period, the reaction was stopped by adding 4 ml of ice-cold solution containing 5 mM Tris (pH 7.4), followed by vacuum filtration on glass fiber filter (GMF 3, Filtrak®) previously soaked with solution 0.5% polyethylenoimine. […] The radioactivity retained on the filters was then determined in a liquid scintillation counter (Packard Tri-Carb 1600 TR). […]
READOUT KIND: Ki (nM)
Your answer should be a plain number; it is taken to be in nM.

| COMPOUND | Ki (nM) |
| --- | --- |
| COc1ccc(CCN2CCN(c3ccccc3OC)CC2)cc1OC [LDT 5] | 3.89 |
| COc1cccc(CCN2CCN(c3ccccc3OC)CC2)c1 [LDT 3] | 1.79 |

Exercise: Complete the entry with Ki for CCOc1ccccc1N1CCN(CCc2ccc3c(c2)OCO3)CC1 [LDT 8]
Solution: 0.018

----------
- ASSAYED TARGET: α1D adrenoceptors (Rattus norvegicus, UniProt P23944)
- Construct: the rat thoracic aorta corresponds to a tissue expressing mainly α1D-adrenoceptors; from tissue; host or cells: rat thoracic aorta rings
- Sequence (P23944 1-561): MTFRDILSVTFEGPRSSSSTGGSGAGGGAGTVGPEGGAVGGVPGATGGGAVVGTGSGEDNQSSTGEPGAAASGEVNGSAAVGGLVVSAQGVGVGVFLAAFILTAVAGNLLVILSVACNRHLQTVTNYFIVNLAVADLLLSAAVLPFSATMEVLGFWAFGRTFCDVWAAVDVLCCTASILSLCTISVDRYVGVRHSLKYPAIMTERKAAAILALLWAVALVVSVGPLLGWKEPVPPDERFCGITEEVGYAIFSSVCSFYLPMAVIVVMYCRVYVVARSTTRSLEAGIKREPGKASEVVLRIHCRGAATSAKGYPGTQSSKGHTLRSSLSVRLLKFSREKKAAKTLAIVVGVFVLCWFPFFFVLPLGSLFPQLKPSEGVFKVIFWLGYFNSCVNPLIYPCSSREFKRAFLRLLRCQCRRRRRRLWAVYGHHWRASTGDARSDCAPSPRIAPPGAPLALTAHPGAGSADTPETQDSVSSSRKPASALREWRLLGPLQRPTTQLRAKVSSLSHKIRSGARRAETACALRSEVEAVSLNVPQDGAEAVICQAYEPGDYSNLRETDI
- ASSAY METHOD TEXT: Phenylephrine-induced contraction inhibition in rat aorta (isometric contraction, Schild KB)
- Assay type: cell-based
- Parameters: concentration ratio CR = EC′50/EC50 (with/without antagonist)
- RUN CONDITIONS: Table 2; LTD 50 nM (62-69)
READOUT KIND: CR

Completed entries (count: 7):
| COMPOUND | CR |
| --- | --- |
| CCCCCCN1CCN(c2ccccc2OC)CC1 [LDT 66] | 32 |
| CCCN1CCN(c2ccccc2OC)CC1 [LDT 63] | 3.1 |
| CCCCCN1CCN(c2ccccc2OC)CC1 [LDT 65] | 7.0 |
| CCOc1ccccc1N1CCN(CC)CC1 [LDT 69] | 6.9 |
| CCCCCCCCN1CCN(c2ccccc2OC)CC1 [LDT 68] | 12.8 |
| CCN1CCN(c2ccccc2OC)CC1 [LDT 62] | 7 |
| CCCCCCCN1CCN(c2ccccc2OC)CC1 [LDT 67] | 29.5 |

Exercise: Complete the entry with CR for CCCCN1CCN(c2ccccc2OC)CC1 [LDT 64]
Solution: 6.4

----------
# Ki values compiled below
- ASSAYED TARGET: 5-HT1A receptors (Rattus norvegicus, UniProt P19327)
- Construct: Intrinsic Activity at Native 5-HT1A Receptors; from tissue; host or cells: rat hippocampus membranes
- ASSAY METHOD TEXT: Binding of [3H]-8-OH-DPAT to 5-HT1A receptors (rat hippocampus membranes)
- RUN CONDITIONS: KI (M), Table 7; Cheng-Prusoff
The reply must contain the numeric value and, after it, the unit.

Completed entries (count: 4):
| ITEM SMILES | Ki |
| --- | --- |
| CCOc1ccccc1N1CCN(CCc2ccc(OC)c(OC)c2)CC1 | 3.8e-09 M |
| COc1ccc(CCN2CCN(c3ccccc3OC)CC2)cc1 | 9.88e-10 M |
| COc1ccccc1N1CCN(CCc2ccccc2)CC1 | 1.24e-09 M |
| COc1ccc(CCN2CCN(c3ccccc3OC)CC2)cc1OC | 2.54e-09 M |

Exercise: Complete the entry with Ki for COc1cccc(CCN2CCN(c3ccccc3OC)CC2)c1
Solution: 1.13e-09 M

Recorded values, source patent US20150011566A1.
